Ref: ChEMBL document CHEMBL1961873

# inhibition per record follows
molecular target: Tyrosine-protein kinase Fer (Homo sapiens) (UniProt P16591); conditions: at 0.1 µM;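 also: reported figures are averaged percent inhibition of FER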
Sequence (P16591 whole entry, looked up): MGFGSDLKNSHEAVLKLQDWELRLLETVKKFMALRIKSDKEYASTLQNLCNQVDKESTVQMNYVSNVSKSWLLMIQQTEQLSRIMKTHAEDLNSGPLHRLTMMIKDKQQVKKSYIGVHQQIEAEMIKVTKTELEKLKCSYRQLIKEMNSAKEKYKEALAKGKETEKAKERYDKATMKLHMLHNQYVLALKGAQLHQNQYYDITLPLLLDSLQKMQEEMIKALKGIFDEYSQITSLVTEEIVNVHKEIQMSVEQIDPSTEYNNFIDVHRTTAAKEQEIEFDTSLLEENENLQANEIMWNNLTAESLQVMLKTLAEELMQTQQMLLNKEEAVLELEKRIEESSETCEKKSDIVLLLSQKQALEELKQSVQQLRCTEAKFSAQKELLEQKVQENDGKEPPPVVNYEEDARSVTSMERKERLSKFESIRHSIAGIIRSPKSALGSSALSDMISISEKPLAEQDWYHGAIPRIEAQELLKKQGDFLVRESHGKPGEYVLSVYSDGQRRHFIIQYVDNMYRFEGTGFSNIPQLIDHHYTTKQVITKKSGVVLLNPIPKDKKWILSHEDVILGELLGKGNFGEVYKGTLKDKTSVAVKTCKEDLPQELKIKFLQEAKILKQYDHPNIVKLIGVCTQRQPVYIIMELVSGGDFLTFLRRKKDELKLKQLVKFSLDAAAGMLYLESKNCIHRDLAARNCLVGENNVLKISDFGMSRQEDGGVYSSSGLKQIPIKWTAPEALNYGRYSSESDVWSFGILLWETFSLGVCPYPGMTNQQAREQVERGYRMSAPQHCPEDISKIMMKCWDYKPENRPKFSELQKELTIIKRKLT
Lab book: enter the figure in %, no units written.

| smiles | valueReported |
| --- | --- |
| FC(F)(F)c1cccc(-c2nn3ncccc3c2-c2ccnc(Nc3ccc4c(c3)OCCO4)n2)c1 | 0.32 |
| CN1CCC(n2cnc(-c3ccc(F)cc3)c2-c2ccnc(N)n2)CC1 | 1.42 |

Lookup: Report inhibition, nothing else, for this molecule: "NC(=O)c1sc(-n2cnc3ccc(C(F)(F)F)cc32)cc1OCc1ccccc1Br"
Found: 2.63

Lookup: Report inhibition, nothing else, for this molecule: "Cc1ccc(O)cc1Nc1ccnc2cc(-c3ccccn3)ccc12"
Found: 5.39

Lookup: Report inhibition, nothing else, for this molecule: "CCOc1ccc2c(-c3ccnc(Nc4cccc(C(F)(F)F)c4)n3)cnn2n1"
Found: 1.8

Lookup: Report inhibition, nothing else, for this molecule: "Fc1ccc(-c2nn3ncccc3c2-c2ccnc(Nc3ccc4c(c3)OCCO4)n2)cc1"
Found: 1.71

Lookup: Report inhibition, nothing else, for this molecule: "COc1ccc2[nH]c3c4[nH]c5ccc(OC)cc5c4c4c(c3c2c1)C(=O)NC4=O"
Found: 29.1

====

target: Tyrosine-protein kinase Fes/Fps (Homo sapiens) (UniProt P07332); conditions: at 1 µM;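 also: mean inhibition of FES from the GSK PKIS kinase inhibitor screening set, assayed by Nanosyn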
Sequence (P07332 whole entry): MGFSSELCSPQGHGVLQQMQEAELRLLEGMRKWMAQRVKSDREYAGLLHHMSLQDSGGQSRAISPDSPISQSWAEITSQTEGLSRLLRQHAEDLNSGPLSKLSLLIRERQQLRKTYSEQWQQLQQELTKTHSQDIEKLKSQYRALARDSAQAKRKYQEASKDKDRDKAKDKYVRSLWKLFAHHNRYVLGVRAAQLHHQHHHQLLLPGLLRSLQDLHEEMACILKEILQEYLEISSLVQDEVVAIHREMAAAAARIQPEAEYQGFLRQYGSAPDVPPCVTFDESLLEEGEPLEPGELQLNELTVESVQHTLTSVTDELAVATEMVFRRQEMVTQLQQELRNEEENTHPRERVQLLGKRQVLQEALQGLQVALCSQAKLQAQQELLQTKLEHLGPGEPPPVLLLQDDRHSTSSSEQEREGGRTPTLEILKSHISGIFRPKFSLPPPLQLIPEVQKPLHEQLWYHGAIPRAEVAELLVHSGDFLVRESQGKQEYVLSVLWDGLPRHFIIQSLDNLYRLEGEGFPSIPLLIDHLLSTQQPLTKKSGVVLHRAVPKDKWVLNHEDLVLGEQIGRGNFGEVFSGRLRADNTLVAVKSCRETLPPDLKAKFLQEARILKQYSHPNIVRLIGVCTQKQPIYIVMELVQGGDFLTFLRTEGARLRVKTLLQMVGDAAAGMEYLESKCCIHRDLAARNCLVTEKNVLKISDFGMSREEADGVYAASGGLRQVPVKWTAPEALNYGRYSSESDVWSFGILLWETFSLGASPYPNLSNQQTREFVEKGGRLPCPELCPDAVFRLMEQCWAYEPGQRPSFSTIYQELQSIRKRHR
Assign 1 to entries whose inhibition meets or exceeds 2%; assign -1 to the rest.

| smiles | label |
| --- | --- |
| COc1cc2ncn(-c3cc(OCc4ccccc4C(F)(F)F)c(C(=O)N(C)C)s3)c2cc1OC | -1 |
| COc1ccc(-c2cc(-c3c[nH]nc3-c3ccccn3)ccn2)cc1 | 1 |
| COc1ccc2[nH]c3c4[nH]c5ccc(OC)cc5c4c4c(c3c2c1)C(=O)NC4=O | 1 |

Lookup: Record "COc1ccc(CNC(=O)c2ccc(-c3cc(-c4nnc(C)o4)ccc3C)cc2)cc1" ; criterion: inhibition no lower than 2%. Met?
Found: 1

Lookup: Record "Clc1ccc(-c2nn3ncccc3c2-c2ccnc(Nc3ccccc3)n2)cc1" ; criterion: inhibition no lower than 2%. Met?
Found: -1

====

target: Interleukin-1 receptor-associated kinase 4 (Homo sapiens); conditions: at 0.1 µM;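 also: reported figure is the mean inhibition of IRAK4 activity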
measurementLabel: inhibition (%)
Lab book: enter the figure in %, no units written.

Lookup: Report value only: inhibition, Interleukin-1 receptor-associated kinase 4 (Homo sapiens), "Fc1cccc(COc2ccc(Nc3ncnc4sc(-c5ccco5)cc34)cc2Cl)c1"
Found: 0.84

Lookup: Report value only: inhibition, Interleukin-1 receptor-associated kinase 4 (Homo sapiens), "CCNC(=O)O[C@H]1CN[C@H](C#Cc2cc3ncnc(Nc4ccc(OCc5cccc(F)c5)c(Cl)c4)c3s2)C1"
Found: -5.34

Lookup: Report value only: inhibition, Interleukin-1 receptor-associated kinase 4 (Homo sapiens), "COc1ccc(CNC(=O)c2ccc(-c3cc(-c4nnc(C)o4)ccc3C)cc2)cc1"
Found: 0.85

Lookup: Report value only: inhibition, Interleukin-1 receptor-associated kinase 4 (Homo sapiens), "[O-][S+]1CCN(Cc2ccc(-c3ccc4ncnc(Nc5ccc(OCc6cccc(F)c6)c(Cl)c5)c4c3)o2)CC1"
Found: 1.66

Lookup: Report value only: inhibition, Interleukin-1 receptor-associated kinase 4 (Homo sapiens), "CCn1c(-c2nonc2N)nc2c(C#CC(C)(C)O)nc(OC[C@H](N)c3ccccc3)cc21"
Found: 1.14

Lookup: Report value only: inhibition, Interleukin-1 receptor-associated kinase 4 (Homo sapiens), "COc1ccc(-c2cc(-c3c[nH]nc3-c3ccccn3)ccn2)cc1"
Found: -2.78

Lookup: Report value only: inhibition, Interleukin-1 receptor-associated kinase 4 (Homo sapiens), "Cc1cccc(Nc2ncc(-c3ccccc3)o2)c1"
Found: 1.25
